target: ER in MCF-7 cells (Homo sapiens (Human)); test: In-cell Western (ICW) ER degradation assay in MCF-7 cells; type: cell-based; details: MCF7, MCF-7, maximal ER degradation, 16 hrs treatment; read-out: MCF7 Dmax
Sequence (P03372 whole entry): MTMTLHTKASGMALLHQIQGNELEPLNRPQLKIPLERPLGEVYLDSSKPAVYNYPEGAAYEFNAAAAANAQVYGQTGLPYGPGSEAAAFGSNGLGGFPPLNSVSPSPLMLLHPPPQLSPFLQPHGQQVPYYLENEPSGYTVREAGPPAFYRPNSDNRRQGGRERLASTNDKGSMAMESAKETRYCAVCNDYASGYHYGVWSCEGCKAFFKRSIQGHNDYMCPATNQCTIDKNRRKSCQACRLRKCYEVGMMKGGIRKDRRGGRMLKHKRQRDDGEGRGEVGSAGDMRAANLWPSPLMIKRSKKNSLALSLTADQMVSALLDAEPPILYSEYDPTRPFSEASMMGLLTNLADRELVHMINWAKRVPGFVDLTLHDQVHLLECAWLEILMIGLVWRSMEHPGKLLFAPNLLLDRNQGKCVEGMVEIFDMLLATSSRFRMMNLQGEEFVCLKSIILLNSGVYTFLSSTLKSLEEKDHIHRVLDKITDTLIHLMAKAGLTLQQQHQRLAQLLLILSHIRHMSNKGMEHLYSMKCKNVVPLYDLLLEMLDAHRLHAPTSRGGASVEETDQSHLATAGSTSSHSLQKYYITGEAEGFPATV
measured_attribute: Dmax

>>> reported_value("O=C1CC[C@@H](Nc2ccc(C3CCN(CC4CC5(CCN(c6ccc([C@@H]7c8ccc(O)cc8CC[C@@H]7c7ccccc7)cc6)CC5)C4)CC3)cc2)C(=O)N1 (single isomer, unassigned)")
"50 to 75%"

Parameter requested: Dmax. Apply to each item below.
1. COc1cc(N2CC(CCN3CCN4c5ccc6c(c5OC[C@H]4C3)CN([C@H]3CCC(=O)NC3=O)C6=O)C2)c(F)cc1[C@@H]1c2ccc(O)cc2CC[C@@H]1c1ccccc1
2. COc1cc(N2CCC3(CC2)C[C@H](CN2CCN4c5ccc6c(c5OC[C@H]4C2)CN([C@H]2CCC(=O)NC2=O)C6=O)CO3)ccc1[C@@H]1c2ccc(O)cc2CC[C@@H]1c1ccccc1 (single isomer, unassigned)
3. O=C1CC[C@H](N2Cc3c(ccc4c3OC[C@H]3CN(CC5COC6(CCN(c7ccc([C@H]8c9ccc(O)cc9CC[C@H]8c8ccccc8)cn7)CC6)C5)CCN43)C2=O)C(=O)N1 (single isomer, unassigned)
4. COc1c([C@H]2c3ccc(O)cc3CC[C@H]2c2ccccc2)ccc(N2CCC(CN3CCN4c5cc6c(cc5OC[C@@H]4C3)C(=O)N([C@H]3CCC(=O)NC3=O)C6)CC2)c1F (single isomer, unassigned)
5. O=C1CC[C@H](N2Cc3c(ccc4c3OC[C@H]3CN(CCCOC5CN(c6ccc([C@@H]7c8ccc(O)cc8CC[C@@H]7c7ccccc7)cc6)C5)CCN43)C2=O)C(=O)N1
6. COc1cc(N2CCC3(CC2)CC(CN2CCN4c5ccc(C(=O)N[C@H]6CCC(=O)NC6=O)nc5OC[C@@H]4C2)C3)c(F)cc1[C@@H]1c2ccc(O)cc2CC[C@@H]1c1ccccc1

Result block:
1. 50 to 75%
2. > 75%
3. < 25%
4. 25 to 50%
5. 50 to 75%
6. 50 to 75%

Parameter requested: Dmax. Apply to each item below.
1. O=C1CC[C@H](N2Cc3cc4c(cc3C2=O)OC[C@@H]2CN(CC3CCC5(CC3)CN(c3ncc([C@H]6c7ccc(O)cc7CC[C@H]6c6ccccc6)cn3)C5)CCN42)C(=O)N1 (single isomer, unassigned)
2. O=C1CC[C@H](N2Cc3c(ccc4c3OC[C@H]3CN(CC5CC6(CCN(c7ncc([C@@H]8c9ccc(O)cc9CC[C@@H]8c8ccccc8)cn7)CC6)C5)CCN43)C2=O)C(=O)N1 (single isomer, unassigned)
3. COc1cc(N2CC3(CCC(CN4CCN5c6cc7c(cc6OC[C@@H]5C4)C(=O)N([C@H]4CCC(=O)NC4=O)C7)CC3)C2)c(F)cc1[C@H]1c2ccc(O)cc2CC[C@H]1c1ccccc1
4. O=C1CC[C@H](N2Cc3c(ccc4c3OC[C@H]3CN(CC5CCC6(CC5)CN(c5ccc([C@H]7c8ccc(O)cc8CC[C@H]7c7ccccc7)cc5F)C6)CCN43)C2=O)C(=O)N1 (single isomer, unassigned)
5. O=C1CC[C@H](N2Cc3c(ccc4c3OC[C@H]3CN(CC5CC6(CCN(c7ccc([C@H]8c9ccc(O)cc9CC[C@H]8c8ccccc8)cc7F)CC6)C5)CCN43)C2=O)C(=O)N1 (single isomer, unassigned)

Result block:
< 25%
> 75%
25 to 50%
25 to 50%
> 75%

Parameter requested: Dmax. Apply to each item below.
1. O=C1CCC(NC(=O)c2ccc(N3CCN(CC4CCN(c5ccc([C@@H]6c7ccc(O)cc7CC[C@@H]6c6ccccc6)cc5)CC4)CC3)cn2)C(=O)N1 (some centres unmarked)
2. COc1cc(N2CCC3(CC2)CC(CN2CCC(c4ccc(N[C@@H]5CCC(=O)NC5=O)cc4)CC2)C3)ccc1[C@@H]1c2ccc(O)cc2CC[C@@H]1c1ccccc1 (single isomer, unassigned)
3. COc1cc(N2CCC3(CC2)CC(CN2CCC(c4ccc(N[C@H]5CCC(=O)NC5=O)cc4)CC2)C3)c(F)cc1[C@H]1c2ccc(O)cc2CC[C@H]1c1ccccc1 (single isomer, unassigned)

Result block:
1: > 75%; 2: 50 to 75%; 3: 50 to 75%

Parameter requested: Dmax. Apply to each item below.
1. O=C1CC[C@H](NC(=O)c2ccc3c(n2)OC[C@H]2CN(CC4CCC5(CC4)CN(c4ccc([C@@H]6c7ccc(O)cc7CC[C@@H]6c6ccccc6)cn4)C5)CCN32)C(=O)N1 (single isomer, unassigned)
2. O=C1CC[C@H](N2Cc3c(ccc4c3OC[C@H]3CN(CC5CC6(CCN(c7cnc(C8c9ccc(O)cc9CCC8c8ccccc8)cn7)CC6)C5)CCN43)C2=O)C(=O)N1 (some centres unmarked)

Result block:
1: 50 to 75%; 2: > 75%
